Tested on: Plasmodium falciparum
assay: Primary screen in NF54 nanoGlo assay, in single point, at 2uM, 72h
Type: functional, Erythrocyte
conditionInfo: timepoint 72 hour
Out of some 150,000 compounds screened, about 540 (0.36%) showed an effect of 50% or more. For the sample, strong results were picked, then their nearest neighbours and some compounds at random.
Below, each entry is listed with its recorded Z score.
Format: numeric value only, no unit, no commentary.

Worked examples, 4 compounds total:
CC(C)(C)[C@H]1CCc2c(sc(NC(=O)C3(F)C(F)(F)C(F)(F)C(F)(F)C(F)(F)C3(F)F)c2C#N)C1	-6.03
Cc1cc(N2CCC(C)CC2)nc2ccc(NC(=O)c3cccnc3)cc12	-2.1
O=C(c1ccc2c(c1)OCO2)N1CCn2c1nc1ccccc12	-0.31
O=C(c1cncc(N2CCOCC2)c1)N1CCn2c1nc1ccccc12	1.5

Problem: Give a short answer stating reported Z score for O=C(N1CCCN(C2CCC2)CC1)C1(c2ccccc2)CCOCC1 .
Result: 2.36

Problem: Give a short answer stating reported Z score for O=C(Nc1ccc2c(c1)OCCCO2)c1ccco1 .
Result: -3.9

Problem: Give a short answer stating reported Z score for COc1ccc(C(=O)Nc2ccc3nc(N4CCC(C)CC4)cc(C)c3c2)cc1OC .
Result: -1.1

Problem: Give a short answer stating reported Z score for O=C(c1cccc(-n2cnnn2)c1)N1CCn2c1nc1ccccc12 .
Result: -0.23

Problem: Give a short answer stating reported Z score for CCOC(=O)CCn1cc(F)c(=O)[nH]c1=O .
Result: -6.55

Problem: Give a short answer stating reported Z score for COc1ccc(-c2nccn3cc(C(=O)N4CCCCCC4)nc23)cc1 .
Result: 0.03

Problem: Give a short answer stating reported Z score for O=C1N(CC2CCCCC2)CCC[C@@]1(O)CN1CCOCC1 .
Result: 1.35

Problem: Give a short answer stating reported Z score for CNc1nc(N2CCOCC2)nc2ccccc12 .
Result: -0.34

---

System: Plasmodium falciparum
assay: Primary screen in NF54 nanoGlo assay, in single point, at 2uM, 72h
Type: functional, Erythrocyte
conditionInfo: timepoint 72 hour
The campaign covered roughly 150,000 compounds. About 540 (0.36%) showed an effect of 50% or more. Many of the other results were omitted from the sample, so strong results are more common in it than they were.
endpoint: % Inhibition (%)
Just the number in %, nothing appended.

Worked examples, 2 compounds total:
O=C(O)c1ccccc1-c1cc(O)cc(CC[C@H]2CCCCN2)c1	-15
Cn1ccnc1CN1C[C@@H](F)C[C@H]1CNc1ncnc2c1CCCCC2	-4

# input for lookup
Problem: Give a short answer stating reported % Inhibition for Cc1noc(CCCC(=O)N2CCN(C3CCCC3O)CC2)n1 (stereo not drawn) .
Result: -26

---

Test system: Plasmodium falciparum
assay: Primary screen in NF54 nanoGlo assay, in single point, at 2uM, 72h; a lower Z score goes with more inhibition
Type: functional, Erythrocyte
conditionInfo: timepoint 72 hour
Among all 150,000 compounds or so, about 540 (0.36%) showed an effect of 50% or more. Only a selection was taken, and strong results are over-represented in it overall.
Below, each entry is listed with its recorded Z score.
Format: numeric value only, no unit, no commentary.

Worked examples, 2 compounds total:
COc1ccc(C(=O)NCCCc2nnc3ccccn23)o1	1.7
N[C@H]1C[C@H](c2cc(NCCCc3cccnc3)nc(C3CC3)n2)C1	-7.09

Problem: Give a short answer stating reported Z score for NC1CC(c2cc(NCc3cccnc3)nc(C3CC3)n2)C1 (centres undefined) .
Result: -2.04

Problem: Give a short answer stating reported Z score for Cc1cccnc1CCNC(=O)N(C)[C@@H](C)c1ccncn1 .
Result: 1.12
